Where these numbers come from: ChEMBL document CHEMBL4382234

Test system: Mycobacterium tuberculosis
Test: Antimycobacterial activity against Mycobacterium tuberculosis H37Rv after 3 to 7 days by rapid direct susceptibility test
Format: functional
Measure: MIC

INPUT: Request - read-out MIC | tested on Mycobacterium tuberculosis | molecule "O=C(O)c1cn(C2CC2)c2cc(N3CCN(CCCN4C(=O)/C(=N/O)c5ccccc54)CC3)c(F)cc2c1=O"
OUTPUT: 0.1 to 64 µg/mL

INPUT: Thanks! And NNC(=O)c1ccncc1 [ISONIAZID] ?
OUTPUT: > 128 µg/mL

INPUT: Continue with "NC(=O)N/N=C1/C(=O)N(CCCN2CCN(c3cc4c(cc3F)c(=O)c(C(=O)O)cn4C3CC3)CC2)c2ccccc21"
OUTPUT: 0.1 to 64 µg/mL

INPUT: Could you do the same for "Cc1ccc2c(c1)/C(=N\NC(N)=S)C(=O)N2CCCN1CCN(c2cc3c(cc2F)c(=O)c(C(=O)O)cn3C2CC2)CC1" , please?
OUTPUT: 0.1 to 64 µg/mL

INPUT: Query "COc1c(N2C[C@@H]3CCCN(Cc4cn(CCN5C(=O)C(=O)c6cc(Br)ccc65)nn4)[C@@H]3C2)c(F)cc2c(=O)c(C(=O)O)cn(C3CC3)c12" next
OUTPUT: 0.1 to 0.78 µg/mL

INPUT: Okay, and "COc1c(N2C[C@@H]3CCCN(Cc4cn(CCN5C(=O)C(=O)c6ccccc65)nn4)[C@@H]3C2)c(F)cc2c(=O)c(C(=O)O)cn(C3CC3)c12" ?
OUTPUT: 0.1 to 0.78 µg/mL

* * *

Test system: Mycobacterium tuberculosis
Test: Antimycobacterial activity against Mycobacterium tuberculosis H37Rv ATCC 27294 by rapid direct susceptibility test
Assay type: functional
Task for the reader: assign each of the following compounds its reported MIC.

INPUT: # lookup: MIC of "COc1c(N2C[C@@H]3CCCN(CN4C(=O)C(=O)c5ccccc54)[C@@H]3C2)c(F)cc2c(=O)c(C(=O)O)cn(C3CC3)c12"
OUTPUT: 0.39 to 16 µg/mL

INPUT: Moving on to "COc1c(N2C[C@@H]3CCCN(CCN4C(=O)/C(=N\NC(N)=O)c5ccccc54)[C@@H]3C2)c(F)cc2c(=O)c(C(=O)O)cn(C3CC3)c12"
OUTPUT: 0.39 to 16 µg/mL

INPUT: Next compound: "COc1c(N2C[C@@H]3CCCN[C@@H]3C2)c(F)cc2c(=O)c(C(=O)O)cn(C3CC3)c12"
OUTPUT: 0.1 to 1 µg/mL

* * *

I'd appreciate it if you could supply MIC values for the items below.
Tested on: Mycobacterium tuberculosis
Test: Antimycobacterial activity against Mycobacterium tuberculosis H37Rv ATCC 27294 by rapid direct susceptibility test
Type: functional

INPUT: What MIC value was documented for this compound, "CO/N=C1\C(=O)N(CN2CCC[C@H]3CN(c4c(F)cc5c(=O)c(C(=O)O)cn(C6CC6)c5c4OC)C[C@H]32)c2ccc(F)cc21" ?
OUTPUT: 0.39 to 16 mg/L

INPUT: Let us now turn to "CO/N=C1\C(=O)N(CCN2CCC[C@H]3CN(c4c(F)cc5c(=O)c(C(=O)O)cn(C6CC6)c5c4OC)C[C@H]32)c2cc(F)ccc21"
OUTPUT: 0.39 to 16 mg/L

INPUT: // next record "COc1c(N2C[C@@H]3CCCN(CN4C(=O)/C(=N\O)c5cc(F)ccc54)[C@@H]3C2)c(F)cc2c(=O)c(C(=O)O)cn(C3CC3)c12"
OUTPUT: 0.39 to 16 mg/L
